Entries and their IC50
# Test system: Radical scavenging activity
# Test Description: Antioxidant activity assessed as DPPH free radical scavenging activity
# Type: functional
Experimental Readout: IC50 (µM)

# Compound, Subject Of Test, Experimental Readout, Relation, Reported Value
records = [
    ("O=C1/C(=C/c2ccc(N3CCCC3)cc2)Cc2ccccc21", "Radical scavenging activity", "IC50", ">", 50),
    ("O=C1/C(=C\\c2ccc(N3CCCC3)cc2)CN(Cc2ccccc2)C/C1=C\\c1ccc(N2CCCC2)cc1", "Radical scavenging activity", "IC50", ">", 50),
    ("CCOC(OCC)c1ccc(/C=C/C(=O)/C=C/c2ccc(C(OCC)OCC)cc2)cc1", "Radical scavenging activity", "IC50", ">", 50),
    ("CN(C)c1ccc(/C=C/C(=O)C2CCc3ccccc3C2=O)c([N+](=O)[O-])c1 (stereo unspecified)", "Radical scavenging activity", "IC50", "=", 49.1),
    ("O=C1/C(=C\\c2ccc(N3CCCC3)cc2)CCC/C1=C\\c1ccc(N2CCCC2)cc1", "Radical scavenging activity", "IC50", "=", 31.3),
    ("O=C1/C(=C/c2ccc(N3CCCC3)cc2)CCc2ccccc21", "Radical scavenging activity", "IC50", "=", 29.2),
    ("CCOC(OCC)c1ccc(/C=C2\\CN(C)C/C(=C\\c3ccc(C(OCC)OCC)cc3)C2=O)cc1", "Radical scavenging activity", "IC50", "=", 20.4),
    ("CN(C)c1ccc(/C=C/C(=O)/C=C/c2ccc(N(C)C)cc2[N+](=O)[O-])c([N+](=O)[O-])c1", "Radical scavenging activity", "IC50", ">", 50),
    ("CCOC(OCC)c1ccc(/C=C2\\CCc3ccccc3C2=O)cc1", "Radical scavenging activity", "IC50", "=", 39.5),
    ("CN(C)c1ccc(/C=C2\\CCc3ccccc3C2=O)c([N+](=O)[O-])c1", "Radical scavenging activity", "IC50", "=", 23),
    ("O=C(/C=C/c1ccc(N2CCCC2)cc1)/C=C/c1ccc(N2CCCC2)cc1", "Radical scavenging activity", "IC50", ">", 50),
    ("CN1C/C(=C/c2ccc(N3CCCC3)cc2)C(=O)/C(=C/c2ccc(N3CCCC3)cc2)C1", "Radical scavenging activity", "IC50", "=", 43.3),
    ("CCOC(OCC)c1ccc(/C=C2\\CNC/C(=C\\c3ccc(C(OCC)OCC)cc3)C2=O)cc1", "Radical scavenging activity", "IC50", "=", 19.3),
    ("O=C1/C(=C\\c2ccc(N3CCCC3)cc2)COC/C1=C\\c1ccc(N2CCCC2)cc1", "Radical scavenging activity", "IC50", ">", 50),
    ("CN(C)c1ccc(/C=C2/COC/C(=C\\c3ccc(N(C)C)cc3[N+](=O)[O-])C2=O)c([N+](=O)[O-])c1", "Radical scavenging activity", "IC50", "=", 29.2),
    ("CN(C)c1ccc(/C=C2/CNC/C(=C\\c3ccc(N(C)C)cc3[N+](=O)[O-])C2=O)c([N+](=O)[O-])c1", "Radical scavenging activity", "IC50", "=", 25.7),
    ("CN(C)c1ccc(/C=C2\\CC/C(=C\\c3ccc(N(C)C)cc3[N+](=O)[O-])C2=O)c([N+](=O)[O-])c1", "Radical scavenging activity", "IC50", "=", 47.8),
    ("CN(C)c1ccc(/C=C2/CCC/C(=C\\c3ccc(N(C)C)cc3[N+](=O)[O-])C2=O)c([N+](=O)[O-])c1", "Radical scavenging activity", "IC50", "=", 32.5),
    ("O=C1O[C@H]([C@@H](O)CO)C(O)=C1O", "Radical scavenging activity", "IC50", "=", 19.4),
    ("CCOC(OCC)c1ccc(/C=C2\\Cc3ccccc3C2=O)cc1", "Radical scavenging activity", "IC50", "=", 37.2),
    ("O=C1/C(=C/c2ccc(N3CCCC3)cc2)CC/C1=C\\c1ccc(N2CCCC2)cc1", "Radical scavenging activity", "IC50", ">", 50),
]

Each recorded value in this set is attributed to ChEMBL document CHEMBL3286139.
